TEST TARGET: HLA-B*18:01
METHOD SUMMARY: IEDB peptide-MHC binding, purified MHC/direct/fluorescence; filed as Kd, often an IC50 or EC50 that approximates it; bounds were set here for any values at or beyond the usual limits of such assays
CONDITION SET: source organism: Brucella suis 1330
REPORTED PROPERTY: Kd

Returns the measured Kd for the input sequence. Input: DPPEPLVRI
≥ 20 µM

###

TEST TARGET: HLA-A*11:01
METHOD SUMMARY: IEDB peptide-MHC binding, purified MHC/competitive/radioactivity; filed as Kd, often an IC50 or EC50 that approximates it; bounds were set here for any values at or beyond the usual limits of such assays
CONDITION SET: source organism: Mammarenavirus whitewaterense
REPORTED PROPERTY: pKd
By convention, pKd is the negative base-10 log of a molar concentration.

Returns the measured pKd for the input sequence. Input: RSCSYKIGHH
4.76

###

TEST TARGET: HLA-B*40:01
METHOD SUMMARY: IEDB peptide-MHC binding, purified MHC/competitive/radioactivity; filed as Kd, often an IC50 or EC50 that approximates it; bounds were set here for any values at or beyond the usual limits of such assays
CONDITION SET: source organism: Variola virus
REPORTED PROPERTY: pKd
By convention, pKd is the negative base-10 log of a molar concentration.

Returns the measured pKd for the input sequence. Input: DKLVDPINY
4.81

###

TEST TARGET: HLA-A*02:16
METHOD SUMMARY: IEDB peptide-MHC binding, purified MHC/direct/fluorescence; filed as Kd, often an IC50 or EC50 that approximates it; bounds were set here for any values at or beyond the usual limits of such assays
CONDITION SET: source organism: Entamoeba histolytica HM-1:IMSS
pKd: −log10 of the molar value.
REPORTED PROPERTY: pKd

Returns the measured pKd for the input sequence. Input: DSFAKQPQW
≤ 4.70

###

TEST TARGET: HLA-B*45:01
METHOD SUMMARY: IEDB peptide-MHC binding, purified MHC/competitive/radioactivity; filed as Kd, often an IC50 or EC50 that approximates it; bounds were set here for any values at or beyond the usual limits of such assays
CONDITION SET: source organism: Mammarenavirus guanaritoense
REPORTED PROPERTY: pKd
By convention, pKd is the negative base-10 log of a molar concentration.

Returns the measured pKd for the input sequence. Input: AEFTFQLNL
6.68

###

TEST TARGET: HLA-B*08:02
METHOD SUMMARY: IEDB peptide-MHC binding, purified MHC/direct/fluorescence; filed as Kd, often an IC50 or EC50 that approximates it; bounds were set here for any values at or beyond the usual limits of such assays
CONDITION SET: source organism: Listeria monocytogenes serotype 4b str. H7858
REPORTED PROPERTY: pKd
By convention, pKd is the negative base-10 log of a molar concentration.

Returns the measured pKd for the input sequence. Input: ILKERKQAL
5.79

###

TEST TARGET: HLA-B*45:01
METHOD SUMMARY: IEDB peptide-MHC binding, purified MHC/competitive/radioactivity; filed as Kd, often an IC50 or EC50 that approximates it; bounds were set here for any values at or beyond the usual limits of such assays
CONDITION SET: source organism: Variola virus
pKd: −log10 of the molar value.
REPORTED PROPERTY: pKd

Returns the measured pKd for the input sequence. Input: DKLVDPINY
≤ 4.11
